Each entry below carries its reported T/C.
Tested on: CD2F1 mice, L1210 leukemia ip, survival T/C
assayText: NCI In Vivo Anticancer Drug Screen. Data for tumor model L1210 Leukemia (intraperitoneal) in CD2F1 (CDF1) mice
conditionSet: endpoint: mean survival time; dose: 6.25 mg/kg/injection; schedule: Q01DX009 (ip); vehicle: saline with Tween-80; higher = longer survival
Inconclusive results and toxic doses are left out.

# sampleSmiles, T/C
records = [
    ("C=CC(=O)O", "97 % of control"),
    ("Nc1nc(-c2ccc([N+](=O)[O-])cc2)c([N+](=O)[O-])c(=O)[nH]1", "95 % of control"),
    ("ClCCN(Cc1ccccc1)Cc1ccccc1", "102 % of control"),
    ("OC(CC(O)(C(F)(F)F)C(F)(F)F)CC(O)(C(F)(F)F)C(F)(F)F", "95 % of control"),
    ("CCN(CC)CCC(=O)c1ccccc1", "103 % of control"),
]

Taken from PubChem BioAssay AID256.
